- target.of.assay: Amine oxidase [flavin-containing] B (Homo sapiens)
- test: biochemical
- Description: Inhibition of human MAO-B expressed in baculovirus infected BTI-TN-5B1-4 cells using p-tyramine as substrate incubated for 15 mins prior to substrate addition measured for 15 mins by Amplex red assay
quantity.measured: pIC50
One number for each entry, as −log10 of the molar value.

Look up pIC50: C/C(=N/Nc1nc(-c2ccc(C#N)cc2)cs1)c1cccs1
5.51

Can you give me pIC50 for all of these, one by one?
1. C/C(=N/Nc1nc(-c2ccc([N+](=O)[O-])cc2)cs1)c1cccs1
2. C/C(=N/Nc1nc(-c2ccc(F)cc2)cs1)c1cccnc1
3. C/C(=N/Nc1nc(-c2ccc(F)cc2F)cs1)c1cccnc1
4. Fc1ccc(-c2csc(N/N=C\c3ccc4c(c3)OCO4)n2)cc1
5. Fc1ccc(-c2csc(N/N=C\c3cccs3)n2)c(F)c1
6. C/C(=N/Nc1nc(-c2ccc(C#N)cc2)cs1)c1ccncc1

1. 6.53
2. 8.77
3. 7.74
4. 5.97
5. 7.78
6. 6.36

Can you give me pIC50 for all of these, one by one?
1. C/C(=N/Nc1nc(-c2ccc(C#N)cc2)cs1)c1nccs1
2. C/C(=N/Nc1nc(-c2ccc([N+](=O)[O-])cc2)cs1)c1nccs1
3. Fc1ccc(-c2csc(N/N=C\c3ccncc3)n2)cc1
4. C/C(=N/Nc1nc(-c2ccc(F)cc2F)cs1)c1cc2ccccc2oc1=O

5.70
6.44
6.95
5.85

###

- target.of.assay: Amine oxidase [flavin-containing] A (Homo sapiens)
- Sequence (P21397 whole entry): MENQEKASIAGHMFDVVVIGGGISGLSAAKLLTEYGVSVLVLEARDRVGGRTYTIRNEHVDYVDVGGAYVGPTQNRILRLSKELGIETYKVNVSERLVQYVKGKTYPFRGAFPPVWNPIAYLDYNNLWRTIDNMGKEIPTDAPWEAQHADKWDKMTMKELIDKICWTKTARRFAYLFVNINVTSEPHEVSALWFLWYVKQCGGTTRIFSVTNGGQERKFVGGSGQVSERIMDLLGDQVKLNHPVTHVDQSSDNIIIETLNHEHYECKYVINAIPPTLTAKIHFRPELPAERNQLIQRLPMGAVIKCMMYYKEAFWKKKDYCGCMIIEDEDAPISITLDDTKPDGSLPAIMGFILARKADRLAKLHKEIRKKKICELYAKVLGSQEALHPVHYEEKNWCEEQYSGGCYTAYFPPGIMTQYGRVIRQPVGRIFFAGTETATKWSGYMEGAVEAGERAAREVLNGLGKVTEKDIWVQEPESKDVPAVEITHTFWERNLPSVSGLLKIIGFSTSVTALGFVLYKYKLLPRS
quantity.measured: IC50 (µM)
One number for each entry, in µM.

Look up IC50: C/C(=N/Nc1nc(-c2ccc(F)cc2F)cs1)c1nccs1
5.46

Another molecule to check: Fc1ccc(-c2csc(N/N=C\c3ccco3)n2)c(F)c1
9.11

Another molecule to check: Fc1ccc(-c2csc(N/N=C\c3c[nH]c4ccccc34)n2)c(F)c1
15.3

Another molecule to check: C/C(=N/Nc1nc(-c2ccc(F)cc2)cs1)c1nccs1
7.55

Can you give me IC50 for all of these, one by one?
1. C/C(=N/Nc1nc(-c2ccc(F)cc2)cs1)c1ccccc1
2. C/C(=N/Nc1nc(-c2ccc(C#N)cc2)cs1)c1nccs1

1: 4.18; 2: 2.85

###

- Organism: Homo sapiens
- test: Selectivity ratio of IC50 for human MAO-A to IC50 for human MAO-B
quantity.measured: Ratio IC50

The cases that follow already have their Ratio IC50 on record.
Look up Ratio IC50: C/C(=N/Nc1nc(-c2ccc(F)cc2)cs1)c1ccccn1
1720

Another molecule to check: C/C(=N/Nc1nc(-c2ccc([N+](=O)[O-])cc2)cs1)c1ccccn1
1450

Another molecule to check: C/C(=N/Nc1nc(-c2ccc(F)cc2F)cs1)c1cccs1
> 33200

Can you give me Ratio IC50 for all of these, one by one?
1. C/C(=N/Nc1nc(-c2ccc(F)cc2F)cs1)c1ccccn1
2. C/C(=N/Nc1nc(-c2ccc(F)cc2)cs1)c1nccs1
3. C/C(=N/Nc1nc(-c2ccc(F)cc2F)cs1)c1cccnc1
4. C/C(=N/Nc1nc(-c2ccc(F)cc2)cs1)c1ccncc1
5. Fc1ccc(-c2csc(N/N=C\c3ccco3)n2)c(F)c1
6. Fc1ccc(-c2csc(N/N=C\c3cccnc3)n2)cc1
7. C/C(=N/Nc1nc(-c2ccc([N+](=O)[O-])cc2)cs1)c1ccncc1
8. N#Cc1ccc(-c2csc(N/N=C\c3c[nH]c4ccccc34)n2)cc1

< 0.03
6.2
> 5430
> 39400
42
> 207
> 7620
> 131

###

- target.of.assay: Amine oxidase [flavin-containing] B (Homo sapiens)
- test: biochemical
quantity.measured: IC50
Answers without a unit are incomplete; give the number and then its unit.

The cases that follow already have their IC50 on record.
Look up IC50: Fc1ccc(-c2csc(N/N=C\c3cccc4ccccc34)n2)c(F)c1
0.138 µM

Another compound to check: N#Cc1ccc(-c2csc(N/N=C\c3ccncc3)n2)cc1
6.75 µM

Another compound to check: Fc1ccc(-c2csc(N/N=C\c3cccs3)n2)cc1
0.338 µM

Can you give me IC50 for all of these, one by one?
1. C/C(=N/Nc1nc(-c2ccc([N+](=O)[O-])cc2)cs1)c1ccco1
2. C/C(=N/Nc1nc(-c2ccc(F)cc2F)cs1)c1nccs1
3. Fc1ccc(-c2csc(N/N=C\c3ccc4c(c3)OCO4)n2)c(F)c1
4. C/C(=N/Nc1nc(-c2ccc([N+](=O)[O-])cc2)cs1)c1ccncc1
5. N#Cc1ccc(-c2csc(N/N=C\c3cccs3)n2)cc1

1. 3.59 µM
2. 0.013 µM
3. 1.17 µM
4. 0.0131 µM
5. 0.153 µM

###

Please provide measured inhibition at 100 µM for the entries that follow.
- target.of.assay: Amine oxidase [flavin-containing] A (Homo sapiens)
- test: Inhibition of human MAO-A expressed in baculovirus infected BTI-TN-5B1-4 cells using p-tyramine as substrate at 100 uM incubated for 15 mins prior to substrate addition measured for 15 mins by Amplex red assay
- details: BTI-TN-5B1-4, human, 0.25 h
One number for each entry, in %.

Look up inhibition at 100 µM: C/C(=N/Nc1nc(-c2ccc(C#N)cc2)cs1)c1cccs1
40

Can you give me inhibition at 100 µM for all of these, one by one?
1. C/C(=N/Nc1nc(-c2ccc(F)cc2)cs1)c1cccs1
2. Fc1ccc(-c2csc(N/N=C\c3cccnc3)n2)c(F)c1
3. O=[N+]([O-])c1ccc(-c2csc(N/N=C\c3cccs3)n2)cc1
4. Fc1ccc(-c2csc(N/N=C\c3cccs3)n2)cc1
5. N#Cc1ccc(-c2csc(N/N=C\c3ccco3)n2)cc1

1. 40
2. 40
3. 40
4. 40
5. 40

###

- target.of.assay: Amine oxidase [flavin-containing] B (Homo sapiens, UniProt P27338)
- Sequence (P27338 whole entry): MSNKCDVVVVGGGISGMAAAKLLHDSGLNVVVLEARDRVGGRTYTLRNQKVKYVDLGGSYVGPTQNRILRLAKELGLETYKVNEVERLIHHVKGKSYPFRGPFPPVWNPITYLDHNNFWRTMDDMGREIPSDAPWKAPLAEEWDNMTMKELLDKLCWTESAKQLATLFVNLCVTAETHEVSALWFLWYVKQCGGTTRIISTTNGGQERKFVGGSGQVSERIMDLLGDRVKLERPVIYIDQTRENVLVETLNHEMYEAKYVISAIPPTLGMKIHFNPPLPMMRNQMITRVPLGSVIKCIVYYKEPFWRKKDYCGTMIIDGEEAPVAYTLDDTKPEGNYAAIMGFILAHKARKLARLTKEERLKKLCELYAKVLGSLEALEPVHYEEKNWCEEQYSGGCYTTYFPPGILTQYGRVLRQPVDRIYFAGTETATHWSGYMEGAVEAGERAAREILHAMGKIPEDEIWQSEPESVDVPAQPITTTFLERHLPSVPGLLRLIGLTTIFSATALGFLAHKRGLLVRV
- test: biochemical
- Format: cell-based, BTI-TN-5B1-4
quantity.measured: pIC50
Answers are plain numbers, as −log10 of the molar value.

Look up pIC50: C/C(=N/Nc1nc(-c2ccc(F)cc2F)cs1)c1cccs1
8.52

Another molecule to check: N#Cc1ccc(-c2csc(N/N=C\c3cccc4ccccc34)n2)cc1
5.96

Another molecule to check: Fc1ccc(-c2csc(N/N=C\c3ccco3)n2)c(F)c1
6.66

Another molecule to check: Fc1ccc(-c2csc(N/N=C\c3ccco3)n2)cc1
6.19

Another molecule to check: C/C(=N/Nc1nc(-c2ccc(C#N)cc2)cs1)c1cccnc1
8.68

Can you give me pIC50 for all of these, one by one?
1. Fc1ccc(-c2csc(N/N=C\c3c[nH]c4ccccc34)n2)c(F)c1
2. C/C(=N/Nc1nc(-c2ccc(C#N)cc2)cs1)c1ccccn1
3. C/C(=N/Nc1nc(-c2ccc(F)cc2)cs1)c1ccccc1
4. C/C(=N/Nc1nc(-c2ccc(F)cc2F)cs1)c1ccncc1
5. Fc1ccc(-c2csc(N/N=C\c3c[nH]c4ccccc34)n2)cc1

[6.28, 6.00, 6.46, 7.78, 6.24]

###

- Species: Homo sapiens
- test: Selectivity ratio of IC50 for human MAO-A to IC50 for human MAO-B
quantity.measured: Ratio IC50

Look up Ratio IC50: C/C(=N/Nc1nc(-c2ccc(F)cc2F)cs1)c1ccco1
> 2490

Another compound to check: Fc1ccc(-c2csc(N/N=C\c3c[nH]c4ccccc34)n2)c(F)c1
29

Another compound to check: C/C(=N/Nc1nc(-c2ccc(F)cc2)cs1)c1cccs1
> 6460

Another compound to check: C/C(=N/Nc1nc(-c2ccc(F)cc2)cs1)c1ccccc1
12

Another compound to check: Fc1ccc(-c2csc(N/N=C\c3cccs3)n2)c(F)c1
> 6030

Can you give me Ratio IC50 for all of these, one by one?
1. Fc1ccc(-c2csc(N/N=C\c3ccc4c(c3)OCO4)n2)c(F)c1
2. C/C(=N/Nc1nc(-c2ccc(C#N)cc2)cs1)c1ccccn1
3. Fc1ccc(-c2csc(N/N=C\c3cccc4ccccc34)n2)c(F)c1
4. Fc1ccc(-c2csc(N/N=C\c3ccncc3)n2)c(F)c1
5. C/C(=N/Nc1nc(-c2ccc(F)cc2F)cs1)c1nccs1

1: > 85; 2: 2.9; 3: > 727; 4: > 182; 5: 421

Can you give me Ratio IC50 for all of these, one by one?
1. Fc1ccc(-c2csc(N/N=C\c3cccc4ccccc34)n2)cc1
2. C/C(=N/Nc1nc(-c2ccc(C#N)cc2)cs1)c1cccnc1
3. C/C(=N/Nc1nc(-c2ccc(F)cc2)cs1)c1ccco1
4. C/C(=N/Nc1nc(-c2ccc(F)cc2F)cs1)c1ccncc1
5. Fc1ccc(-c2csc(N/N=C\c3c[nH]c4ccccc34)n2)cc1
6. C/C(=N/Nc1nc(-c2ccc([N+](=O)[O-])cc2)cs1)c1nccs1
7. N#Cc1ccc(-c2csc(N/N=C\c3cccnc3)n2)cc1
8. Fc1ccc(-c2csc(N/N=C\c3ccco3)n2)cc1

1: > 7.8; 2: > 47800; 3: 18; 4: > 5990; 5: > 173; 6: 24; 7: > 106; 8: > 153

Can you give me Ratio IC50 for all of these, one by one?
1. C/C(=N/Nc1nc(-c2ccc(F)cc2F)cs1)c1cc2ccccc2oc1=O
2. C/C(=N/Nc1nc(-c2ccc(F)cc2)cs1)c1cccnc1

1: > 70; 2: > 58800

Taken from ChEMBL document CHEMBL2150850.
